Biological target: BmOr-1-BmOrco (Bombyx mori, UniProt Q5WA61)
Construct: full-length cRNAs from modified pSPUTK vector, co-injected (25 ng each) in Xenopus laevis oocytes; heteromer of unknown stoichiometry; with Odorant receptor coreceptor
Sequence (Q5WA61 1-430): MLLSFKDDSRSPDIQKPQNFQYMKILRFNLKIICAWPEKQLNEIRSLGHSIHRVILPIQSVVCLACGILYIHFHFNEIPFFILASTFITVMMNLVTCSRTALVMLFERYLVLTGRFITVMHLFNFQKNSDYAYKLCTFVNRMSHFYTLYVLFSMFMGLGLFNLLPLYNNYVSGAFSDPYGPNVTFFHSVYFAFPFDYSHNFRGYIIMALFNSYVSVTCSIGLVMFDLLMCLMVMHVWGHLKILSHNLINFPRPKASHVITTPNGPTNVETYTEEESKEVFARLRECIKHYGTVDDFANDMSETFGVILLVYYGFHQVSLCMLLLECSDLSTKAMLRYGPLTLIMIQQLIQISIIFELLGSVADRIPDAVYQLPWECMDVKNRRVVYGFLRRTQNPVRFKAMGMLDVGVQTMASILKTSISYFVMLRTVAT
Sequence (Q7YT34 1-472 partner): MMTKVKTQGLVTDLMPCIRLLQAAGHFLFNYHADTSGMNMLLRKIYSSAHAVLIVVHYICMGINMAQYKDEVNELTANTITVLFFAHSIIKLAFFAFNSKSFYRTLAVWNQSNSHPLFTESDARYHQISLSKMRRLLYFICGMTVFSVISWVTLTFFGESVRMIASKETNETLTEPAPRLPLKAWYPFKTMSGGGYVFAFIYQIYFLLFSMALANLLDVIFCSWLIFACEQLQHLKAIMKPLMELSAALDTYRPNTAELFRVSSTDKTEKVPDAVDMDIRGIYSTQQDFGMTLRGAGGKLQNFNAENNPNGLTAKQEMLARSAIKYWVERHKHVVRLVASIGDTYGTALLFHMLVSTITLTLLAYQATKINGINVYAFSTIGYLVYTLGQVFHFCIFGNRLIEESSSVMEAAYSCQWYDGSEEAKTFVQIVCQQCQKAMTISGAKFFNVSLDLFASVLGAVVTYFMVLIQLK
Assay: two-electrode voltage clamp, Xenopus oocytes, dose-response
parameter: EC50 (nM)
State the answer as a number, implicitly in nM.

# EC50 of CCC/C=C\C=C\CCCCCCCCCO [Bombykol] = 190

* * *

Molecular target: BmOr-1-BmOrco (Bombyx mori, UniProt Q5WA61, E356C)
Construct: full-length cRNAs from modified pSPUTK vector, co-injected (25 ng each) in Xenopus laevis oocytes; heteromer of unknown stoichiometry; with Odorant receptor coreceptor
Assay: two-electrode voltage clamp, Xenopus oocytes, dose-response
parameter: EC50 (nM)
State the answer as a number, implicitly in nM.

// assay BmOr-1-BmOrco (Bombyx mori, UniProt Q5WA61, E356C), entry CCC/C=C\C=C\CCCCCCCCCO , EC50 value = 300
